- experimentDescription: Half life in Sprague-Dawley rat at 10 mg/kg, po measured up to 24 hrs by LC-MS/MS analysis
- Type: ADME, organism-based
- setupConditions: in vivo
experimentalReadout: half-life

# smilesRepresentation, experimentalReadout, result
rows = [
    ("O=C(Cc1c(-c2ccccc2)nc2ccccn12)Nc1ccc2c(c1)S(=O)(=O)C=C2", "half-life", "1.46 h"),
]

----------
- System: MCF7
- experimentDescription: Antiproliferative activity against human MCF7 cells assessed as reduction in cell viability after 72 hrs by CCK8 assay
- Type: functional, cell-based
- setupConditions: MCF7, 72 h

# smilesRepresentation, IC50 (µM)
data = [
    ("O=C(Cc1c(-c2ccccc2)nc2ccccn12)Nc1ccc2c(c1)S(=O)(=O)C=C2", 7.22),
]

----------
- experimentDescription: Cmax in Sprague-Dawley rat at 10 mg/kg, po measured up to 24 hrs by LC-MS/MS analysis
- Format: ADME, organism-based
- Design: route oral, dose 10 mg/kg, time <=24
- setupConditions: in vivo

# smilesRepresentation, Cmax
data = [
    ("O=C(Cc1c(-c2ccccc2)nc2ccccn12)Nc1ccc2c(c1)S(=O)(=O)C=C2", "23.8 ng/mL"),
]

----------
- Test system: HCC70
- experimentDescription: Antiproliferative activity against human HCC70 cells assessed as reduction in cell viability after 72 hrs by CCK8 assay
- Type: functional, cell-based
- setupConditions: HCC70, 72 h
pIC50: −log10 of the molar value.

# smilesRepresentation, pIC50
records = [
    ("O=C(Cc1c(-c2ccccc2)nc2ccccn12)Nc1ccc2c(c1)S(=O)(=O)C=C2", 5.96),
]

----------
- System: MGC-803
- experimentDescription: Antiproliferative activity against human MGC-803 cells
- Type: functional, cell-based
pIC50: −log10 of the molar value.

# smilesRepresentation, pIC50
data = [
    ("O=C(Nc1nnc(-c2ccco2)o1)c1cc(-c2ccccc2)nc2ccccc12", 5.13),
    ("Cc1ccc2nc(-c3ccc(C#N)cc3)c(CC(=O)Nc3ccc4c(c3)S(=O)(=O)C=C4)n2c1", 5.62),
    ("COc1ccc2c(C(=O)Nc3ccc(Cl)cc3)cc(-c3ccccc3)nc2c1", 4.30),
    ("COc1ccn2c(CC(=O)Nc3ccc4c(c3)S(=O)(=O)C=C4)c(-c3ccc(C(F)(F)F)cc3)nc2c1", 6.40),
    ("COc1ccn2c(CC(=O)Nc3ccc(-c4ccccc4)cc3)c(-c3ccccc3)nc2c1", 5.46),
]

----------
- measurementTarget: Signal transducer and activator of transcription 3 (Homo sapiens, UniProt P40763)
- Sequence (P40763 whole entry): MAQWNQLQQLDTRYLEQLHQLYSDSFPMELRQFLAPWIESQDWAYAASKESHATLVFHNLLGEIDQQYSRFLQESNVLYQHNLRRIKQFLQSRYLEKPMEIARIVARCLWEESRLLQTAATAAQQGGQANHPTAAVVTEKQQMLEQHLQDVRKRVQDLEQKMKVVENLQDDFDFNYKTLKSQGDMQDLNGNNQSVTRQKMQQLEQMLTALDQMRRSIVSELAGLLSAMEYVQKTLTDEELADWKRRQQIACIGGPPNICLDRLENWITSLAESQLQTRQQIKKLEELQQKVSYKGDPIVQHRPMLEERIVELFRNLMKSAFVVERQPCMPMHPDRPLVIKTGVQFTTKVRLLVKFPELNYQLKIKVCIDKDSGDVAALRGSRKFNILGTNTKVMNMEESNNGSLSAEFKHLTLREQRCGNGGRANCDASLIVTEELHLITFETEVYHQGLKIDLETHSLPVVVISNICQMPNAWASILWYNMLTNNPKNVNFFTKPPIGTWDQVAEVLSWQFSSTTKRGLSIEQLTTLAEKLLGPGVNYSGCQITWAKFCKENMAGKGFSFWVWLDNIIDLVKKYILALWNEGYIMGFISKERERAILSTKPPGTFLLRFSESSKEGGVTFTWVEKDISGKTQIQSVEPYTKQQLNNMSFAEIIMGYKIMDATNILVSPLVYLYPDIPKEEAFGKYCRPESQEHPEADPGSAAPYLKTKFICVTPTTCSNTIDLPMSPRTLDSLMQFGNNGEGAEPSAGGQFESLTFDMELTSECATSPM
pKd: −log10 of the molar value.

# smilesRepresentation, pKd
measured = [
    ("O=C(Cc1c(-c2ccccc2)nc2ccccn12)Nc1ccc2c(c1)S(=O)(=O)C=C2", 6.36),
]

----------
# maps each entry to its IC50
- System: MGC-803
- experimentDescription: Antiproliferative activity against human MGC-803 cells
- Format: functional, cell-based

# smilesRepresentation, measurementTarget, valueModifier, IC50 (µM)
measured = [
    ("COc1ccn2c(CC(=O)Nc3ccc4c(c3)S(=O)(=O)C=C4)c(-c3ccc([N+](=O)[O-])cc3)nc2c1", "MGC-803", "=", 2.6),
    ("CCCCc1ccc(NC(=O)c2cc(-c3ccccc3)nc3cc(OC)ccc23)cc1", "MGC-803", "=", 39.6),
    ("O=C(O)COc1ccc2c(C(=O)Nc3ccc(C4CCCCC4)cc3)cc(-c3ccccc3)nc2c1", "MGC-803", ">", 100),
    ("CS(=O)(=O)c1ccc(-c2nc3ccccn3c2CC(=O)Nc2ccc3c(c2)S(=O)(=O)C=C3)cc1", "MGC-803", "=", 6.9),
    ("O=C(NCc1ccc(C2CCCCC2)cc1)c1cc(-c2ccccc2)nc2cc(O)ccc12", "MGC-803", "=", 14.6),
]
